Data origin: patent US9169224B2

Measured Target: rat FAAH (Rattus norvegicus (Rat), UniProt P97612)
Sequence (P97612 whole entry): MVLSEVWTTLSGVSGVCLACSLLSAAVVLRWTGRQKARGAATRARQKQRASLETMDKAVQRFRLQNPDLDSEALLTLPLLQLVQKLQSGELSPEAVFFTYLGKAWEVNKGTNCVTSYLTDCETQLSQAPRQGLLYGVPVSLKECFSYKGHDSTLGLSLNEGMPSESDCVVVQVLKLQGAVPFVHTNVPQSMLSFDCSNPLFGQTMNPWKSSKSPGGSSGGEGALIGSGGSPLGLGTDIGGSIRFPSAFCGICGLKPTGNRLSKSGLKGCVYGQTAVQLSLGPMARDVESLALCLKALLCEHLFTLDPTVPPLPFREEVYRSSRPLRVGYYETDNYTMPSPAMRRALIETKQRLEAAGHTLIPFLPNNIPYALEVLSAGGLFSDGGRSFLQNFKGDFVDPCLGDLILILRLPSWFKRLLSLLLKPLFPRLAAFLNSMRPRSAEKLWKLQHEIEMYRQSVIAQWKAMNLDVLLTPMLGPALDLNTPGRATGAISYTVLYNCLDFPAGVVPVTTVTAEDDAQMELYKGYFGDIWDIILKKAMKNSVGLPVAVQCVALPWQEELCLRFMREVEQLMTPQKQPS
Assay Explanation: Assay Method 3: FAAH assay, cells transfected with rat FAAH
Format: biochemical
Condition Details: T84 or rat FAAH-transfected SK-N-MC cell homogenate, 3H-AEA tracer 80 nM, 1 h at rt
pIC50: −log10 of the molar value. Where a name gives a salt, the structure may show the parent alone.
Measured Quantity: pIC50

INSERT INTO measurements (compound, measured_target, numeric_result) VALUES
  ('O=C(O)c1cccc(NC(=O)N2CCN(Cc3cnc4ccccc4c3)CC2)c1 [Example 141, (potassium salt)]', 'rat FAAH (Rattus norvegicus (Rat), UniProt P97612)', 5.10),
  ('O=C(Nc1ccccc1)N1CCN(Cc2ccc(Br)c(Br)c2)CC1 [Example 21]', 'rat FAAH (Rattus norvegicus (Rat), UniProt P97612)', 6.74),
  ('O=C(Nc1ccncn1)N1CCN(Cc2ccc3c(c2)OC(F)(F)O3)CC1 [Example 153]', 'rat FAAH (Rattus norvegicus (Rat), UniProt P97612)', 4.22),
  ('O=C(Nc1ccccc1F)N1CCN(Cc2cnc3ccccc3c2)CC1 [Example 112]', 'rat FAAH (Rattus norvegicus (Rat), UniProt P97612)', 6.43),
  ('O=C(Nc1ccccc1)N1CCN(Cc2ccccc2O)CC1 [Example 41]', 'rat FAAH (Rattus norvegicus (Rat), UniProt P97612)', 5.00),
  ('O=C(Nc1ccc(F)cc1)N1CCN(Cc2ccc3c(c2)OCO3)CC1 [Example G, reference compound]', 'rat FAAH (Rattus norvegicus (Rat), UniProt P97612)', 5.00),
  ('O=C(Nc1ccccc1)N1CCN(Cc2ccc3c(c2)OC(F)(F)O3)CC1 [Example 52]', 'rat FAAH (Rattus norvegicus (Rat), UniProt P97612)', 6.54),
  ('O=C(Nc1cccnc1)N1CCN(Cc2ccc3c(c2)OCO3)CC1 [Example 146]', 'rat FAAH (Rattus norvegicus (Rat), UniProt P97612)', 5.19),
  ('O=C(Nc1cccnc1)N1CCN(Cc2cnc3ccccc3c2)CC1 [Example 142]', 'rat FAAH (Rattus norvegicus (Rat), UniProt P97612)', 5.40);

---

Measured pIC50 values are reported for all entries that follow.
Measured Target: rat FAAH (Rattus norvegicus (Rat), UniProt P97612)
Assay Explanation: Assay Method 3: FAAH assay, cells transfected with rat FAAH
Format: biochemical
Condition Details: T84 or rat FAAH-transfected SK-N-MC cell homogenate, 3H-AEA tracer 80 nM, 1 h at rt
pIC50: −log10 of the molar value.
Measured Quantity: pIC50

INSERT INTO assay_data (compound, measured_target, measured_quantity, numeric_result) VALUES
  ('O=C(Nc1ncccn1)N1CCN(Cc2ccc3c(c2)OCO3)CC1 [Example 148]', 'rat FAAH (Rattus norvegicus (Rat), UniProt P97612)', 'pIC50', 5.00),
  ('O=C(Nc1ccccc1)N1CCN(Cc2ccc3ccc4cccc5ccc2c3c45)CC1 [Example 68]', 'rat FAAH (Rattus norvegicus (Rat), UniProt P97612)', 'pIC50', 6.21),
  ('O=C(Nc1ccccc1)N1CCN(Cc2ccc3ccccc3n2)CC1 [Example 19]', 'rat FAAH (Rattus norvegicus (Rat), UniProt P97612)', 'pIC50', 6.46),
  ('CN(C(=O)N1CCN(Cc2ccc(Br)c(Br)c2)CC1)c1ccccc1 [Example 160]', 'rat FAAH (Rattus norvegicus (Rat), UniProt P97612)', 'pIC50', 5.00),
  ('O=C(Nc1ccncn1)N1CCN(Cc2ccc(Br)c(Br)c2)CC1 [Example 154]', 'rat FAAH (Rattus norvegicus (Rat), UniProt P97612)', 'pIC50', 5.70),
  ('O=C(Nc1ccccc1)N1CCN(Cc2cc(Br)ccc2O)CC1 [Example 34]', 'rat FAAH (Rattus norvegicus (Rat), UniProt P97612)', 'pIC50', 6.39),
  ('COC(=O)c1cccc(NC(=O)N2CCN(Cc3cnc4ccccc4c3)CC2)c1 [Example 106]', 'rat FAAH (Rattus norvegicus (Rat), UniProt P97612)', 'pIC50', 5.70),
  ('O=C(Nc1ccccc1)N1CCN(Cc2cnc3ccccc3n2)CC1 [Example 156]', 'rat FAAH (Rattus norvegicus (Rat), UniProt P97612)', 'pIC50', 5.10),
  ('O=C(O)c1ccc(NC(=O)N2CCN(Cc3cnc4ccccc4c3)CC2)cc1 [Example 155]', 'rat FAAH (Rattus norvegicus (Rat), UniProt P97612)', 'pIC50', 5.00);
